assay: Toxicokinetic (TK) study in rats, 28-day; assay type: in vivo, rat; settings: female, rat, in vivo, 40 mg/kg, Study Day 1, Female

[
  {
    "smiles_representation": "C=CC(=O)N1CC[C@@H](n2nc(-c3ccc(Oc4c(F)c(F)cc(F)c4F)cc3F)c3c(N)ncnc32)C1",
    "Cmax [ng/mL]": 2660
  }
]

###

test: Toxicokinetic (TK) study in dogs, 28-day; type: in vivo, dog; settings: female, dog, in vivo, 15 mg/kg/day, Study Day 1, Female, read-out: AUC0-24 h

[
  {
    "smiles_representation": "C=CC(=O)N1CC[C@@H](n2nc(-c3ccc(Oc4c(F)c(F)cc(F)c4F)cc3F)c3c(N)ncnc32)C1",
    "AUC(0-t) / ng·h/mL": 2930
  }
]

###

test: Toxicokinetic (TK) study in dogs, 28-day; type: in vivo, dog; details: female, dog, in vivo, 15 mg/kg/day, Study Day 1, Female

[
  {
    "compound": "C=CC(=O)N1CC[C@@H](n2nc(-c3ccc(Oc4c(F)c(F)cc(F)c4F)cc3F)c3c(N)ncnc32)C1 [Compound 45]",
    "Tmax [h]": 1
  }
]

###

test: Toxicokinetic (TK) study in dogs, 28-day; assay type: in vivo, dog; conditions: male, dog, in vivo, 15 mg/kg/day, Study Day 1, Male, read-out: AUC0-24 h

[
  {
    "smiles_representation": "C=CC(=O)N1CC[C@@H](n2nc(-c3ccc(Oc4c(F)c(F)cc(F)c4F)cc3F)c3c(N)ncnc32)C1",
    "AUC(0-t), ng·h/mL": 3550
  }
]

###

test: Toxicokinetic (TK) study in rats, 28-day; type: in vivo, rat; settings: female, rat, in vivo, 200 mg/kg, Study Day 1, Female

[
  {
    "smiles_representation": "C=CC(=O)N1CC[C@@H](n2nc(-c3ccc(Oc4c(F)c(F)cc(F)c4F)cc3F)c3c(N)ncnc32)C1",
    "Tmax, h": 4
  }
]

###

assay: Pharmacokinetic study in male SD rats; format: in vivo; details: rat, plasma, PO, 10 mg/kg, mean
value_type: Tmax

[
  {
    "smiles_representation": "C=CC(=O)N1CC[C@@H](n2nc(-c3ccc(Oc4c(F)c(F)cc(F)c4F)cc3F)c3c(N)ncnc32)C1",
    "observed": "1.33 h"
  }
]

###

test: Toxicokinetic (TK) study in dogs, 28-day; type: in vivo, dog; conditions: female, dog, in vivo, 105 mg/kg/day, Study Day 28, Female

[
  {
    "smiles_representation": "C=CC(=O)N1CC[C@@H](n2nc(-c3ccc(Oc4c(F)c(F)cc(F)c4F)cc3F)c3c(N)ncnc32)C1",
    "Tmax (h)": 2
  }
]

###

experiment: Toxicokinetic (TK) study in rats, 28-day; format: in vivo, rat; conditions: female, rat, in vivo, 200 mg/kg, Study Day 28, Female, read-out: AUC0-24 h

[
  {
    "compound": "C=CC(=O)N1CC[C@@H](n2nc(-c3ccc(Oc4c(F)c(F)cc(F)c4F)cc3F)c3c(N)ncnc32)C1 [Compound 45]",
    "AUC(0-t) [ng·h/mL]": 60200
  }
]

###

Collected pIC50 values appear next to each entry.
target: BTK wild type (Homo sapiens (Human), UniProt Q06187); experiment: Inhibition assay of BTK kinase activity (HTRF); type: biochemical; conditions: read-out: BTK IC50
Sequence (Q06187 whole entry): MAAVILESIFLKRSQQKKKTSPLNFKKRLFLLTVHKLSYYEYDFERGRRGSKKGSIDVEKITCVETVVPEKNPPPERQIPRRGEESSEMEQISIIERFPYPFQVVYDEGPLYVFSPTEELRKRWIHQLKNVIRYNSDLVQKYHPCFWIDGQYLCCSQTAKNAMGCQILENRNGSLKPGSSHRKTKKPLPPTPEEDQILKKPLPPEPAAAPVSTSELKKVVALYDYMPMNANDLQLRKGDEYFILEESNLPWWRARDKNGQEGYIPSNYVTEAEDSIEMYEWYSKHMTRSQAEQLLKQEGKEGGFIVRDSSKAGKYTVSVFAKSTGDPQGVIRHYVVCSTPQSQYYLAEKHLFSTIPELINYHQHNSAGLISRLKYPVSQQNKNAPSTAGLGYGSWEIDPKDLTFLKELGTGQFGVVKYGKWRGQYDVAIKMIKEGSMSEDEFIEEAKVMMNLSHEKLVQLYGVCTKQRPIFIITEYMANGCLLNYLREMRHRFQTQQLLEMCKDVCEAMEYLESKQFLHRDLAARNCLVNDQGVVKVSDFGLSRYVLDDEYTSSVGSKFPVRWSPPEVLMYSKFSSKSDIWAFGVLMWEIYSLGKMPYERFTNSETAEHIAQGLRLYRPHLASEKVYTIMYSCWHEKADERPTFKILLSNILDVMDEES
pIC50: −log10 of the molar value.

[
  {
    "molecule": "Nc1ncnc2c1c(-c1ccc(Oc3c(F)c(F)cc(F)c3F)cc1F)nn2[C@@H]1CCN(C(=O)NO)C1 [Compound 115]",
    "pIC50": 7.89
  },
  {
    "molecule": "CNC(=O)/C=C/C(=O)N1CCCC(n2nc(-c3ccc(Oc4c(F)c(F)cc(F)c4F)cc3F)c3c(N)ncnc32)C1 (stereo not shown) [Compound 42]",
    "pIC50": 7.42
  },
  {
    "molecule": "CC(=O)CC(=O)N1CCCC(n2nc(-c3ccc(Oc4c(F)c(F)cc(F)c4F)cc3F)c3c(N)ncnc32)C1 (stereo not shown) [Compound 44]",
    "pIC50": 6.43
  },
  {
    "molecule": "Nc1ncnc2c1c(-c1ccc(Oc3c(F)c(F)cc(F)c3F)cc1F)nn2[C@H]1CCCN(C(=O)CF)C1 [Compound 108]",
    "pIC50": 6.36
  },
  {
    "molecule": "C=CC(=O)N1CC[C@@H](n2nc(-c3ccc(Oc4ccnc5cc(OC)c(OC)cc45)cc3F)c3c(N)ncnc32)C1 [Compound 89]",
    "pIC50": 7.60
  },
  {
    "molecule": "Nc1ncnc2c1c(-c1ccc(Oc3c(F)c(F)cc(F)c3F)cc1F)nn2C1CCCN(C(=O)CCl)C1 (stereo not shown) [Compound 61]",
    "pIC50": 9.10
  },
  {
    "molecule": "C=CC(=O)N1CCCC(n2nc(-c3ccc(Oc4cccc(F)c4)cc3F)c3c(N)ncnc32)C1 (stereo not shown) [Compound 18]",
    "pIC50": 8.52
  }
]
